System: Escherichia coli
assay overview: Antibacterial activity against Escherichia coli at 2 mg/ml by agar diffusion test
Assay type: functional
measurement context: read-out: DIZ
result type: zone of inhibition at 2000 µg/mL (mm)
Answers are plain numbers, in mm.

Recorded zone of inhibition at 2000 µg/mL, per entry:
**Q:** What does the data say about its zone of inhibition at 2000 µg/mL? Entry: C=C1[C@H](OC(C)=O)C[C@H](OC(C)=O)[C@@]2(C)[C@@H](OC(C)=O)C[C@@H](OC(C)=O)[C@]3(CO3)[C@@H]2[C@H](OC(C)=O)[C@]2(O)[C@@H](C)C(=O)O[C@H]2[C@H]1Cl (relative stereo)
**A:** 20

**Q:** Give its zone of inhibition at 2000 µg/mL value. Item: C=C1[C@H](Cl)[C@@H]2OC(=O)[C@H](C)[C@]23O[C@@H]1[C@H](OC(C)=O)[C@H](OC(C)=O)[C@@]1(C)[C@@H](OC(C)=O)CC[C@]2(CO2)[C@@H]1[C@@H]3OC(C)=O [PRAELOLIDE]
**A:** 18

**Q:** Reported zone of inhibition at 2000 µg/mL, compound C=C1CC[C@H](OC(C)=O)[C@@]2(C)[C@@H](OC(C)=O)C[C@@H](OC(=O)CC(C)C)[C@]3(CO3)[C@@H]2[C@H](OC(C)=O)[C@]2(O)[C@@H](C)C(=O)O[C@H]2[C@H]1Cl [JUNCENOLIDE J] : ____
**A:** 11

**Q:** Given the entry C=C1[C@H](OC(=O)CC(C)C)C[C@H](OC(C)=O)[C@@]2(C)[C@@H](OC(C)=O)[C@@H](OC(=O)CC(C)C)[C@@H](OC(C)=O)[C@]3(CO3)[C@@H]2[C@H](OC(C)=O)[C@]2(O)[C@@H](C)C(=O)O[C@H]2[C@H]1Cl (relative stereo) , report its measured zone of inhibition at 2000 µg/mL.
**A:** 17

**Q:** Consider the compound shown here: C=C1[C@H](OC(C)=O)C[C@H](OC(C)=O)[C@@]2(C)[C@@H](OC(=O)CC(C)C)C[C@@H](OC(C)=O)[C@]3(CO3)[C@@H]2[C@H](OC(C)=O)[C@]2(O)[C@@H](C)C(=O)O[C@H]2[C@H]1Cl (relative stereo) What is its recorded zone of inhibition at 2000 µg/mL?
**A:** 20

Would you mind giving zone of inhibition at 2000 µg/mL for every compound in the list below?
1. C=C1[C@H](OC(C)=O)C[C@H](OC(C)=O)[C@@]2(C)[C@@H](OC(C)=O)C[C@@H](OC(=O)CC(C)C)[C@]3(CO3)[C@@H]2[C@H](OC(C)=O)[C@]2(O)[C@@H](C)C(=O)O[C@H]2[C@H]1Cl (relative stereo)
2. C=C1[C@H]2O[C@]3([C@@H](C)C(=O)O[C@H]3[C@H]1Cl)[C@@H](OC(C)=O)[C@H]1[C@@]3(CO3)[C@H](OC(=O)CC(C)C)C[C@H](OC(C)=O)[C@]1(C)[C@@H](OC(C)=O)[C@H]2OC(C)=O (relative stereo)
3. C=C1[C@H]2O[C@]3([C@@H](C)C(=O)O[C@H]3[C@H]1Cl)[C@@H](OC(C)=O)[C@H]1[C@@]3(CO3)[C@H](OC(C)=O)C[C@H](OC(C)=O)[C@]1(C)[C@@H](OC(C)=O)[C@H]2OC(C)=O (relative stereo)

**A:**
[19, 34, 20]
